Provide the recorded Log2 (fold) (luciferase activity, log2 of the fold difference relative to DMSO controls) for the entries that follow.
# Tested on: Raf-1^gof intestinal tumors; note: test concentration or dose not given here
# MEASUREMENT SETUP: screen of 480 ICCB compounds in vials; compounds fed to flies with one-day old Raf-1^gof tumors, assessed three days later; esg-Gal4 luciferase
Numbers only.

Previously resolved entries follow.
Give Raf-1^gof intestinal tumors Log2 (fold) (luciferase activity, log2 of the fold difference relative to DMSO controls) for the following compound: CCCCCCCCCCCCCCCC(=O)NCCO [PALMITYLETHANOLAMIDE]
−0.486

Lab note: Raf-1^gof intestinal tumors assay, enter Log2 (fold) (luciferase activity, log2 of the fold difference relative to DMSO controls) for Cc1ccc(S(=O)(=O)N[C@@H](Cc2ccccc2)C(=O)CCl)cc1 [Tosyl-Phe-CMK (TPCK)] here
−0.233

Send back Raf-1^gof intestinal tumors Log2 (fold) (luciferase activity, log2 of the fold difference relative to DMSO controls) of COCc1cc(O)c(O)c(O)c1-c1c(COC)cc(O)c(O)c1O [HBDDE] only.
−0.233

Determine reported Log2 (fold) (luciferase activity, log2 of the fold difference relative to DMSO controls) for Cc1ccc(N(CC2=NCCN2)c2cccc(O)c2)cc1 [PHENTOLAMINE] ; test system: Raf-1^gof intestinal tumors. Note: test concentration or dose not given here.
−0.321

Give Log2 (fold) (luciferase activity, log2 of the fold difference relative to DMSO controls) only, for CCCCC[C@H](O)/C=C/[C@@H]1[C@@H](CC(=O)CCCCC(=O)O)[C@@H](O)C[C@H]1O [6-KETO-PROSTAGLANDIN F1a] , using Raf-1^gof intestinal tumors data.
−0.435

For Raf-1^gof intestinal tumors, give the measured Log2 (fold) (luciferase activity, log2 of the fold difference relative to DMSO controls) of the entry CC(C)NCC(O)c1ccc(N)c(C#N)c1 (stereo not shown) [CIMATEROL]
−0.598

Write Log2 (fold) (luciferase activity, log2 of the fold difference relative to DMSO controls) of CCN(CC)CCCCCCCCOC(=O)c1cc(OC)c(OC)c(OC)c1 [TMB-8] ; system used: Raf-1^gof intestinal tumors; note: test concentration or dose not given here
−0.325

Name the recorded Log2 (fold) (luciferase activity, log2 of the fold difference relative to DMSO controls) of C=C1[C@@H](O)[C@@H]2O[C@]3(CC[C@H](/C=C/[C@@H](C)[C@@H]4CC(C)=C[C@@]5(O[C@H](C[C@@](C)(O)C(=O)O)CC[C@H]5O)O4)O3)CC[C@H]2O[C@@H]1[C@@H](O)C[C@H](C)[C@H]1O[C@@]2(CCCCO2)CC[C@H]1C [okadaic acid, reference compound] , assay system Raf-1^gof intestinal tumors. Note: test concentration or dose not given here.
−1.713

Name the recorded Log2 (fold) (luciferase activity, log2 of the fold difference relative to DMSO controls) of CCCCC[C@H](O)/C=C/[C@@H]1[C@H]2C/C(=C/CCCC(=O)[O-])O[C@H]2C[C@H]1O.[Na+] [PROSTAGLANDIN I2 Na] , assay system Raf-1^gof intestinal tumors. Note: test concentration or dose not given here.
−0.244

Kindly review the next compound as well.
Tell me Log2 (fold) (luciferase activity, log2 of the fold difference relative to DMSO controls) of CCCCCCCC/C=C\C/C=C\C/C=C\CCCC(=O)NCCO [MEAD ETHANOLAMIDE] when tested on Raf-1^gof intestinal tumors. Note: test concentration or dose not given here.
−0.322
